Each recorded value in this set is attributed to patent EP4737445A1.

Assay: Liver microsomal stability, human
Format: in vitro ADME
Conditions: 1 µM compound; 0.5 mg/mL microsomes; NADPH; 30 minutes at 37°C
Listed compounds paired with reported Human microsomes (% remaining)
Form entry: value (% remaining) — number only.

Some entries whose results are on file:
>  <smiles_str>
N#CC(C#N)=NNc1ccc2nc(N3CC[C@@H](F)C3)oc2c1

>  <recorded_number>
70.0

$$$$
>  <smiles_str>
Cn1c(N2C3CCC2COC3)nc2ccc(NN=C(C#N)C#N)cc21

>  <recorded_number>
88.9

$$$$
>  <smiles_str>
Cn1c(N2C3CCC2COC3)nc2cc(NN=C(C#N)C#N)ccc21

>  <recorded_number>
94.3

$$$$

Human microsomes (% remaining) recorded for this compound, "CCn1c(N2CCOCC2)nc2ccc(NN=C(C#N)C#N)cc21" , is 95.5

* * *

Experiment: Liver microsomal stability, rat
Format: in vitro ADME
Conditions: 1 µM compound; 0.5 mg/mL microsomes; NADPH; 30 minutes at 37°C
Please assign false whenever Rat microsomes (% remaining) is at or above 80 % remaining, and true whenever it is below.

# example entries with known answers
>  <compound>
N#CC(C#N)=NNc1ccc2nc(N3CC4CCC(C3)O4)sc2c1

>  <group>
true

$$$$
>  <compound>
CC1CN(c2nc3ccc(NN=C(C#N)C#N)cc3s2)CCO1 (stereo not drawn)

>  <group>
true

$$$$
>  <compound>
CC1CN(c2nc3ccc(NN=C(C#N)C#N)cc3o2)CCO1 (stereo not drawn)

>  <group>
true

$$$$
>  <compound>
Cc1nc2ccc(NN=C(C#N)C#N)cc2s1 [Comparative compound 1, reference compound]

>  <group>
true

$$$$

Next, consider the following compound.
# strict comparison: is reported Rat microsomes (% remaining) < 80 % remaining? input = "CN1CCN(c2nc3ccc(NN=C(C#N)C#N)cc3s2)CC1"
true

* * *

Target: CYP1A2 (Homo sapiens, UniProt P05177)
Construct: human liver microsomes (0.25 mg/mL); from tissue; host or cells: human liver microsomes
Sequence (P05177 whole entry): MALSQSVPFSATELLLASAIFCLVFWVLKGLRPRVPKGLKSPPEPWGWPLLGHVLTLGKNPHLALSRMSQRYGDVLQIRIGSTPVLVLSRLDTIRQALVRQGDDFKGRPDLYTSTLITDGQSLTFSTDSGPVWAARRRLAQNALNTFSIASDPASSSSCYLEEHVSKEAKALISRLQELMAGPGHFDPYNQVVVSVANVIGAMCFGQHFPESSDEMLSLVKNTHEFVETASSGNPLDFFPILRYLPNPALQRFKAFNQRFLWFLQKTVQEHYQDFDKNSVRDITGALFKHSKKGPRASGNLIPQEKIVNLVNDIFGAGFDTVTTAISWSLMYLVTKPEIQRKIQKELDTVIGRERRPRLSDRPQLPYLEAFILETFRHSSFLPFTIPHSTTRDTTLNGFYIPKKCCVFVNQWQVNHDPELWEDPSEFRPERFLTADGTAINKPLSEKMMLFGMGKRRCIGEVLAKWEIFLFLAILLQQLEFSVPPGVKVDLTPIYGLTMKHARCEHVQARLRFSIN
Assay: CYP isoenzyme activity inhibition in human liver microsomes, CYP1A2
Format: in vitro ADME
Settings: 10 µM compound; human liver microsomes 0.25 mg/mL; relative to control without compound
quantity_measured: CYP1A2 (% activity)
Record the value in % activity, omitting the unit from your answer.

Lab entry: CYP1A2 (Homo sapiens, UniProt P05177) assay, compound CC(=O)N1CCN(c2nc3ccc(NN=C(C#N)C#N)cc3o2)CC1 [Compound 31] , CYP1A2 (% activity) = 92.7

* * *

Biological target: Tau (Homo sapiens, UniProt P10636)
Construct: BiFC fluorescent-protein fragments (two complementary halves on two tau copies); expressed in transfected cells
Sequence (P10636 1-441 isoform P10636-8): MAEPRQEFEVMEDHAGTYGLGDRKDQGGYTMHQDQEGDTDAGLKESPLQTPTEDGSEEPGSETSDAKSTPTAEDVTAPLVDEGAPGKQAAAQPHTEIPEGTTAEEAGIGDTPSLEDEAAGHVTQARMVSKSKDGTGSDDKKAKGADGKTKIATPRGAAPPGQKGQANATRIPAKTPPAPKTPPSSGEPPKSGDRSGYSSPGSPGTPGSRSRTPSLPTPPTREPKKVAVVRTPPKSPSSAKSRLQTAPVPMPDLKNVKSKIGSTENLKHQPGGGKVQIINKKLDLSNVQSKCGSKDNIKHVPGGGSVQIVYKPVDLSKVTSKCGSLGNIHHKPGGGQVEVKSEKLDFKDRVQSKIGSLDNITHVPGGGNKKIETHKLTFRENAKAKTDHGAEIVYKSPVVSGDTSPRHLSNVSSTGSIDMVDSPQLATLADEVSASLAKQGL
Assay: Tau aggregation inhibition in Tau-BiFC cell model (Forskolin-induced)
Type: cell-based
quantity_measured: pIC50
API: returns pIC50 as number; meaning -log10 of concentration in mol/L.

Solved entries (count: 3):
>  <molecule>
N#CC(C#N)=NNc1ccc2sc(N3CCOCC3)nc2c1

>  <pIC50>
7.92

$$$$
>  <molecule>
Cn1c(N2CCOCC2)nc2cc(NN=C(C#N)C#N)ccc21

>  <pIC50>
7.62

$$$$
>  <molecule>
N#CC(C#N)=NNc1ccc2nc(N3CCC[C@@H](F)C3)oc2c1

>  <pIC50>
6.93

$$$$

The recorded pIC50 for entry "N#CC(C#N)=NNc1ccc2nc(N3CC4CCC(C3)O4)sc2c1" equals 7.32

Field pIC50 (entry "COC1CCN(c2nc3ccc(NN=C(C#N)C#N)cc3s2)CC1" ) reads 7.44

# pIC50 (molecule: "Cn1c(N2C3CCC2COC3)nc2ccc(NN=C(C#N)C#N)cc21" ) is 7.92

pIC50 in this record for "N#CC(C#N)=NNc1ccc2nc(N3CCOCC3)[nH]c2c1" : 7.19

The value of pIC50 measured for the molecule "CC(=O)N1CCN(c2nc3ccc(NN=C(C#N)C#N)cc3s2)CC1" turned out to be 7.22

So for "CC(C)N1CCN(c2nc3ccc(NN=C(C#N)C#N)cc3o2)CC1" , the logged pIC50 turned out to be 7.80
